Biological target: T1, GFP-Pif1 K312A (Saccharomyces cerevisiae, UniProt P07271 40-859, K312A)
T1 sequence: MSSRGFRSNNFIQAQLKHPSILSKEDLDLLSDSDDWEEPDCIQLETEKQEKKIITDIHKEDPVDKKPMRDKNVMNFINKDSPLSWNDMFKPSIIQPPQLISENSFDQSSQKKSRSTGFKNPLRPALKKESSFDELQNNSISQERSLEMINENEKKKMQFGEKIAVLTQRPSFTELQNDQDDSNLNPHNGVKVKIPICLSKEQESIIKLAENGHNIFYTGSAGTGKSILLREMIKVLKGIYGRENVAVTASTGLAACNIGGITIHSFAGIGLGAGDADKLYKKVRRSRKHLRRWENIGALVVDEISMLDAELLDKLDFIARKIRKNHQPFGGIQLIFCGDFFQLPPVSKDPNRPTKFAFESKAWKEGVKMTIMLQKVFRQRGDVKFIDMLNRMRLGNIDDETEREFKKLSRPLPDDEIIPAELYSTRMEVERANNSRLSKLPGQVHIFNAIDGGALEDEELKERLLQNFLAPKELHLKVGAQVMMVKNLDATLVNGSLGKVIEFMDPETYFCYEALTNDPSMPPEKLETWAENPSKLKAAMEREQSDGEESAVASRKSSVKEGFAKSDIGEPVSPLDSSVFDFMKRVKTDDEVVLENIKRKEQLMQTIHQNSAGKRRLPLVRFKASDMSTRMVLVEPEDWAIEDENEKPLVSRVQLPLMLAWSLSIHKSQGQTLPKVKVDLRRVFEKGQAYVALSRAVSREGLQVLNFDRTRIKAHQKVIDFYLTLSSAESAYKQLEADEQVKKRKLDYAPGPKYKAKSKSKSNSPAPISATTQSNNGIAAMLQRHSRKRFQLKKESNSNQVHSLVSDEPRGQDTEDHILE
Assay: EMSA; no ATP, 5 mM Mg2+; 35 mM Tris-HCl pH 7.5, 1 mM DTT, 5 mM MgCl2, 60 mM KCl, 0.1 mg/ml BSA, no ATP, 30 min at 30 C; 5 nM ssDNA
Conditions: protein: recombinant; tags: N-terminal superfolder GFP; Ni-NTA purified; label: 5' Alexa647
pKd: −log10 of the molar value.
assay-endpoint: pKd

- GCTAGCAGTAGCCAGCATCGAACGTACGATCGGTAACGTA (ssDNA) [40-nt ssDNA]: 7.40
